Test system: rodent lifetime carcinogenesis bioassay, tumor incidence TD50
Experiment: carcinogenic potency in animals, long-term in vivo studies, CPDB compilation (AID 1745844)
Settings: mouse; strain Swiss albino; females; in drinking water; site: blood vessels; lesion: angiosarcoma; dosed 112 weeks; study length 112 weeks
Experimental readout: TD50 (mg/kg/day)

>>> observed_result("NNc1ccccc1")
165

====

Test system: rodent lifetime carcinogenesis bioassay, tumor incidence TD50
Test: carcinogenic potency in animals, long-term in vivo studies, CPDB compilation (AID 1745844)
Conditions: rat; strain Fischer 344; males; in feed; site: colon + rectum; lesion: adenocarcinoma; dosed 103 weeks; study length 104 weeks
Experimental readout: TD50

>>> observed_result("Nc1c(Br)cc(Br)c2c1C(=O)c1ccccc1C2=O")
"320 mg/kg/day"

====

Test system: rodent lifetime carcinogenesis bioassay, tumor incidence TD50
Assay: carcinogenic potency in animals, long-term in vivo studies, CPDB compilation (AID 1745844)
Conditions: mouse; strain C3H/HeJ (MTV+); females; in feed; site: mammary gland; lesion: adenocarcinoma; dosed 52 weeks; study length 52 weeks
Experimental readout: TD50 (mg/kg/day)

>>> observed_result("CC/C(=C(/CC)c1ccc(O)cc1)c1ccc(O)cc1")
0.0825

====

Tested on: rodent lifetime carcinogenesis bioassay, tumor incidence TD50
Experiment: carcinogenic potency in animals, long-term in vivo studies, CPDB compilation (AID 1745844)
Conditions: rat; strain C.B. hooded; males; by gavage; site: liver; lesion: liver-cell adenoma; dosed 104 weeks; study length 114 weeks
Active and inactive are the calls of the source. No rule for the calls is given here.
Experimental readout: TD50

>>> observed_result("O.O=S(=O)(O)O.[Cd]")
"1.17 mg/kg/day (inactive)"

====

# TD50 per entry
Test system: rodent lifetime carcinogenesis bioassay, tumor incidence TD50
Assay: carcinogenic potency in animals, long-term in vivo studies, CPDB compilation (AID 1745844)
Conditions: mouse; strain B6C3F1; females; in feed; site: liver; lesion: hepatocellular adenoma + hepatocellular carcinoma + neoplastic nodule; dosed 104 weeks; study length 105 weeks
Experimental readout: TD50 (mg/kg/day)

>>> observed_result("O=Nc1ccc(NO)cc1")
656
>>> observed_result("C[C@H]1CCCC(=O)CCC/C=C/c2cc(O)cc(O)c2C(=O)O1")
38.8
>>> observed_result("O=[N+]([O-])c1cc(N(CCO)CCO)ccc1NCCO")
19000
>>> observed_result("CN(C)NC(=O)CCC(=O)O")
6820

====

System: rodent lifetime carcinogenesis bioassay, tumor incidence TD50
Test: carcinogenic potency in animals, long-term in vivo studies, CPDB compilation (AID 1745844)
Details: mouse; strain B6C3F1; males; in feed; site: all sites; lesion: malignant lymphoma; dosed 78 weeks; study length 79 weeks
Active and inactive are the calls of the source. How the calls were made is not given here.
Experimental readout: TD50

>>> observed_result("COc1cc(/C=C/C(=O)O[C@H]2CC[C@]34C[C@]35CC[C@]3(C)[C@@H]([C@H](C)CCC=C(C)C)CC[C@@]3(C)[C@@H]5CC[C@H]4C2(C)C)ccc1O")
"15900 mg/kg/day (inactive)"

====

System: rodent lifetime carcinogenesis bioassay, tumor incidence TD50
Assay: carcinogenic potency in animals, long-term in vivo studies, CPDB compilation (AID 1745844)
Settings: mouse; strain B6C3F1; males; inhaled; site: Harderian gland; lesion: adenoma + adenoma, bilateral; dosed 26 weeks; study length 104 weeks
Experimental readout: TD50 (mg/kg/day)

>>> observed_result("C=CC=C")
22.7
